Biological target: T1, TRAF2, Q12933
T1 chain: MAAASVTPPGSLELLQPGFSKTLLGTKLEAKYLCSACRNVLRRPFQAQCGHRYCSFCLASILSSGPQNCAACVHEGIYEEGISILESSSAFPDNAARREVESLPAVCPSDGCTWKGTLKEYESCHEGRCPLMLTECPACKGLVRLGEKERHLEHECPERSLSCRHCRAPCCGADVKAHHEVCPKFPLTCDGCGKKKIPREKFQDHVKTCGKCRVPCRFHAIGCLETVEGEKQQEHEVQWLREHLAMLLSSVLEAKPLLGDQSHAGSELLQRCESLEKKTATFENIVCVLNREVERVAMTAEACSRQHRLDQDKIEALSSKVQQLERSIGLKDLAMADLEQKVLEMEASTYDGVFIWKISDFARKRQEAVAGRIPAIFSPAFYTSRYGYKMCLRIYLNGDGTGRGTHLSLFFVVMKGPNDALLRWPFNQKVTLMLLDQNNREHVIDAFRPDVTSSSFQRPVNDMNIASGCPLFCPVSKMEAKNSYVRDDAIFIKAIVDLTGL
Test: median log2 fold change of GCK-ALFA target abundance (FLAG IP / Myc IP barcode read proportion) (log2 ratio); each designed protein is fused to an ALFA-tag nanobody in HEK293 cells to bring the named protein to FLAG-tagged glucokinase (GCK); Myc marks an untargeted standard; higher = target protein stabilised (more abundant)
Conditions: target protein: 3xFLAG-MCP-GCK-ALFA reporter; HEK293 landing pad (RPLP)
The full ranking holds about 1,800 sequences; the median of “median log2 fold change of GCK-ALFA target abundance (FLAG IP / Myc IP barcode read proportion)” is about 0.14, and the lowest 2% start at about -0.84. This excerpt belongs to a sample that is enriched for the lowest values.
quantity_measured: median log2 fold change

See these solved cases before continuing.
[[record]]
binder = "traf2_out_11_169_830 (protein) EEAEKNRKINDFALELEEKAKEEFKKFVLELAKEEGLDVEEIKKIFEENKNKSLSAIAAAVIEYFKSKGKEEAAEKVLKKYEELKEKINKEATEKIKELE"
quantity_measured = "median log2 fold change"
result = 0.00164

[[record]]
binder = "traf2_out_15_180_1332 (protein) MTEEELEKRIELVAEVADEADERVREELAAAGVTSPEHLALARSGVRAVITHVFAGWEEEAEEVEEIVAARLPEELRPLFRRLVEEARRRAEEALERLKK"
quantity_measured = "median log2 fold change"
result = -0.0893

[[record]]
binder = "traf2_out_18_117_1795 (protein) SEREEIIEELEELAERLGKAASELGKAVLDNWEKLTPEEKSEAMDVLADLSAVRRRAQELIHKIKTENIPVEEARKELEELKKEAEAALAAAEAKIARIK"
quantity_measured = "median log2 fold change"
result = 0.171


Here's the next entry for you.
The recorded median log2 fold change for entry traf2_out_20_3_2054 (protein) EELLKELEEEEKKLRELIEEIEKLVDPETAEELREALERVEKARKEGLEEYLVALSELRRLLLRLAEEARAAGKEEVAALLEEAAEAAQRAMNIVMKIIE equals 0.588

Ref: the supplement of paper PMC12632987
